Test system: CCRF-CEM
protocol: NCI tumour cell line growth inhibition, 48 h
Calls of active or inactive are those of the source. Rule as the data show it: active = GI50 up to about 1.1 µM and inactive = higher.
Use one of these outcomes when replying: active, inactive

compound	measurementTarget	className
CC(=O)OC1COC(N2C(=O)C(=O)c3cc(Br)c([N+](=O)[O-])cc32)C(OC(C)=O)C1OC(C)=O (stereo not given)	CCRF-CEM	inactive
CC1CCCc2c1c1ccc3c(O)cccc3c1oc2=O (stereo not given)	CCRF-CEM	inactive
Cc1nnc2cc(C(=O)O)c3ccccc3n2c1=O	CCRF-CEM	inactive

INPUT: Tell me the recorded outcome of this test for `CC(C)OC(=O)c1ccc(CCC2=CC(=O)C=CC2=O)cc1` .
OUTPUT: active

INPUT: Status in this test for N=C(N)NCCCC(NC(=O)OCCCCn1ccc(N)nc1=O)C(=O)O (stereo not given) ?
OUTPUT: inactive
